Hey, just so you know, these numbers are from ChEMBL document CHEMBL1201862.

Test system: ACHN
Experiment: NCI tumour cell line growth inhibition, 48 h
Active and inactive are the calls of the source. No stated cut-off is given here; in the data, active = GI50 up to about 1.1 µM and inactive = higher.
Give GI50 for every item shown.

get_value(item= O=c1/c(=C/c2ccc([N+](=O)[O-])o2)sc2n1[C@@H](c1ccc3c(c1)OCO3)C=C(c1cc(F)c(Cl)cc1Cl)N=2 , readout=GI50) returns 16.1 µM (inactive)

get_value(item= C=CC/C=C/C/C=C/CCCCCCCc1cccc(O)c1C(=O)O , readout=GI50) returns 44.2 µM (inactive)

get_value(item= O=[S@@]1Nc2ccc(Br)cc2S1 , readout=GI50) returns 1.07 µM (active)

get_value(item= COc1ccccc1C1CC(=O)CC(c2ccccc2OC)C12C(=O)NC(=S)NC2=O (stereo unspecified) , readout=GI50) returns 28.2 µM (inactive)

get_value(item= N#Cc1c(NC(=O)CCC(=O)O)ccc2ccccc12 , readout=GI50) returns > 100 µM (inactive)

get_value(item= CC(=O)OCc1cc(=O)n2c([nH]c3ccccc32)c1C#N , readout=GI50) returns 52.4 µM (inactive)
